- PROTOCOL_TEXT: Quantitative High-Throughput drug screen in 47 multiple myeloma cell lines against the NCATS MIPE library collection: MM1R_ATCC cell viability assay (AID 1918981); note: nearly all actives have a fitted effect of over 35% in size; note: potency is the fitted concentration of half-maximal effect
- ASSAY_SETUP: MM1R multiple myeloma cells, CellTiter-Glo viability, 48 h; series mostly up to 45.8 µM
Results filed as inconclusive are left out. Calls of active or inactive are those of the source. Calls come from the whole dose curve; as a rule, active = well fitted cell-killing curve with a large enough effect; inconclusive = small, poorly fitted or top-dose-only effect, or effect the other way; inactive = no such curve, though single readings can be large or run the other way.
EXPERIMENTAL_READOUT: Potency

Some compounds with known Potency results, for comparison:
COc1cc2c(cc1OC)C1CC(=O)C(CC(C)C)CN1CC2 (stereo not given) :: inactive
CC(C)[N+]1(C)[C@@H]2CC[C@H]1CC(OC(=O)C(CO)c1ccccc1)C2 (stereo not given in full) :: inactive
S=c1nc[nH]c2nc[nH]c12 :: 7.43 µM (active)
Clc1ccc2c(N3CCN(CCCN4CCN(c5ccnc6cc(Cl)ccc56)CC4)CC3)ccnc2c1 :: inactive

Okay, next one:
Prompt: Note Potency for the compound shown: `O=C(O)c1cc(=O)c2c(OCC(O)COc3cccc4oc(C(=O)O)cc(=O)c34)cccc2o1`
Response: inactive

* * *

- PROTOCOL_TEXT: qHTS for differential inhibitors of proliferation of Plasmodium falciparum line HB3 (AID 1886);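 note: parasites grown with compound for 72 h before SYBR Green readout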
- ASSAY_SETUP: Plasmodium falciparum HB3 proliferation inhibition; series mostly up to 28.7 µM
Results filed as inconclusive are left out. Calls of active or inactive are those of the source. Calls follow the shape of the dose curve; as a rule, active = well fitted curve in the direction sought with a large enough effect; inconclusive = small, poorly fitted or top-dose-only effect, or another doubt; inactive = no such curve, though single readings can be large or run the other way.
Your reply should match one of these outcome classes. active, inactive

Look over these answered cases.
NNc1nncc2ccccc12 :: inactive
O=C(c1ccccc1)c1ccc2n1CCC2C(=O)O (configuration not stated) :: inactive
COc1ccccc1N1CCN(CCN(C(=O)C2CCCCC2)c2ccccn2)CC1 :: active
CC1(C)C(=O)N(CCN2CCC(C(=O)c3ccc(F)cc3)CC2)c2ccccc21 :: active
NCCCCNCCCN :: inactive
O=Nc1c(-c2c(O)[nH]c3cc(Br)ccc23)[nH]c2ccccc12 :: active

Consider the additional molecule presented here.
Prompt: What did the test return for `CC(C)c1ccc2c(c1)c(SC(C)(C)C)c(CC(C)(C)C(=O)O)n2Cc1ccc(Cl)cc1` ?
Response: active

* * *

- Tested on: CP191
- PROTOCOL_TEXT: qHTS profiling for inhibitors of Plasmodium falciparum proliferation (AID 504749);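 note: 0% = DMSO vehicle and full inhibition = artemisinin control; nearly all actives have a fitted effect of over 60% in size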
- ASSAY_SETUP: P. falciparum in erythrocytes, SYBR Green DNA, 72 h; series mostly up to 28.7 µM
Records with an inconclusive call do not appear. The source made the active and inactive calls. Calls come from the whole dose curve; as a rule, active = well fitted inhibition curve with a large enough effect; inconclusive = small, poorly fitted or top-dose-only effect; inactive = flat fitted curve, though single readings scatter.
Your reply should match one of these outcome classes. active, inactive

Prompt: What did the test return for `Cc1nc2n(c(=O)c1CCN1CCC(c3noc4cc(F)ccc34)CC1)CCCC2` ?
Response: inactive

Prompt: What did the test return for `O=C(O)c1cn(-c2ccc(F)cc2)c2cc(N3CCNCC3)c(F)cc2c1=O` ?
Response: inactive

Prompt: What did the test return for `CN(C)C(=O)COC(=O)Cc1ccc(OC(=O)c2ccc(N=C(N)N)cc2)cc1` ?
Response: inactive

Prompt: What did the test return for `c1ccc2[nH]c(-c3cscn3)nc2c1` ?
Response: inactive

Prompt: What did the test return for `CCN(CC)CCOc1ccc(Cc2ccccc2)cc1` ?
Response: inactive

Prompt: What did the test return for `CN(c1nccc(=O)[nH]1)C1CCN(c2nc3ccccc3n2Cc2ccc(F)cc2)CC1` ?
Response: inactive

* * *

- PROTOCOL_TEXT: qHTS of pediatric cancer cell lines to identify multiple opportunities for drug repurposing: Primary screen for A673 cells (AID 1347092); note: nearly all actives have a fitted effect of over 45% in size; note: potency is the fitted concentration of half-maximal effect
- ASSAY_SETUP: A673 Ewing sarcoma viability, CellTiter-Glo ATP luminescence, 48 h; series mostly up to 46 µM
- Method: Drug repurposing or repositioning has been offered as a strategy for drug development in oncology programs. […] We employed a titration-based paradigm (quantitative high-throughput screening or qHTS), where all compounds were tested at multiple concentrations for their effect on cell viability. […] Shen, M et al. Quantitative high-throughput phenotypic screening of pediatric cancer cell lines identifies multiple opportunities for drug repurposing. […]
Records with an inconclusive call do not appear. The source made the active and inactive calls. Calls come from the whole dose curve; as a rule, active = well fitted cell-killing curve with a large enough effect; inconclusive = small, poorly fitted or top-dose-only effect; inactive = no such curve, though single readings can be large or run the other way.
EXPERIMENTAL_READOUT: Potency

Cc1cc(O)c2c(c1)C(=O)c1cc(O)cc(O)c1C2=O :: inactive
CC1(C)C(=O)N(CCN2CCC(C(=O)c3ccc(F)cc3)CC2)c2ccccc21 :: inactive
O=C1NC(=O)C(c2ccccc2[N+](=O)[O-])=C1Nc1ccc(O)c(Cl)c1 :: 5.9 µM (active)
Nc1cc(C(Cl)=C(Cl)Cl)c(S(N)(=O)=O)cc1S(N)(=O)=O :: inactive
CC(C)[N+]1(C)[C@@H]2CC[C@H]1CC(OC(=O)C(CO)c1ccccc1)C2 (stereo partly specified) :: 9.35 µM (active)

Okay, next one:
Prompt: Note Potency for the compound shown: `O=c1c(O)c(-c2ccc(O)cc2O)oc2cc(O)cc(O)c12`
Response: inactive

* * *

- PROTOCOL_TEXT: Quantitative High-Throughput drug screen in 47 multiple myeloma cell lines against the NCATS MIPE library collection: PCM6_Riken cell viability assay (AID 1919870); note: nearly all actives have a fitted effect of over 30% in size
- ASSAY_SETUP: CellTiter-Glo ATP, 48 h; series mostly up to 45.8 µM
Inconclusive results are not listed. The source made the active and inactive calls. Calls come from the whole dose curve; as a rule, active = well fitted cell-killing curve with a large enough effect; inconclusive = small, poorly fitted or top-dose-only effect, or effect the other way; inactive = no such curve, though single readings can be large or run the other way.
Your reply should match one of these outcome classes. active, inactive

Look over these answered cases.
CCOC(=O)C1=C(O)C(=O)N(Cc2ccccc2)C1 :: inactive
O=C(O)c1cc(=O)c2c(OCC(O)COc3cccc4oc(C(=O)O)cc(=O)c34)cccc2o1 :: inactive

Prompt: What did the test return for Cc1cccc(CN2CCN(C(c3ccccc3)c3ccc(Cl)cc3)CC2)c1 (stereo not drawn) ?
Response: active

Prompt: What did the test return for `O=C(NOCC1CC1)c1ccc(F)c(F)c1Nc1ccc(I)cc1Cl` ?
Response: active

* * *

- PROTOCOL_TEXT: Quantitative High-Throughput drug screen in 47 multiple myeloma cell lines against the NCATS MIPE library collection: KMS12PE_JCRB cell viability assay (AID 1918972); note: nearly all actives have a fitted effect of over 30% in size;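 for viability: 100% = DMSO only wells and 0% = wells with media alone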
- ASSAY_SETUP: KMS12PE myeloma viability, CellTiter-Glo ATP, 48 h; series mostly up to 45.8 µM
Inconclusive results are not listed. Active and inactive are the calls of the source. The call rests on the fitted dose curve; in most records, active means well fitted cell-killing curve with a large enough effect; inconclusive means small, poorly fitted or top-dose-only effect, or effect the other way; inactive means no such curve, though single readings can be large or run the other way.
Your reply should match one of these outcome classes. t for active, f for inactive

CC1=C(C(=O)O)N2C(=O)[C@@H](NC(=O)[C@H](N)C3=CCC=CC3)[C@H]2SC1 :: f

Prompt: What did the test return for O=C(CS(=O)Cc1ccco1)NCC=CCOc1cc(CN2CCCCC2)ccn1 (stereo not drawn) ?
Response: f

Prompt: What did the test return for `Cc1cc(Cl)ccc1OCCCC(=O)NO` ?
Response: t

Prompt: What did the test return for `CCC[C@@H]1C[C@@H](C(=O)N[C@@H]([C@H]2O[C@H](SC)[C@H](O)[C@@H](O)[C@H]2O)[C@@H](C)O)N(C)C1` ?
Response: f

Prompt: What did the test return for `C[C@@H](c1ncncc1F)[C@](O)(Cn1cncn1)c1ccc(F)cc1F` ?
Response: f

Prompt: What did the test return for `N=C(N)c1ccc2cc(OC(=O)c3ccc(N=C(N)N)cc3)ccc2c1` ?
Response: f

Prompt: What did the test return for `Cc1ccc(C(=O)c2cc(O)c(O)c([N+](=O)[O-])c2)cc1` ?
Response: t

Prompt: What did the test return for `Cc1cccc(C#Cc2ccccc2)n1` ?
Response: f

* * *

- PROTOCOL_TEXT: qHTS profiling of the MIPE4 collection as inhibitors of Plasmodium falciparum (3D7) proliferation (AID 743344);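 note: scaled between DMSO vehicle wells and 0.29 µM artemisinin as full inhibition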
- ASSAY_SETUP: P. falciparum 3D7 in erythrocytes, SYBR Green DNA fluorescence, 72 h; at 28.5 µM (top of the series) unless noted
- Description: Plasmodium falciparum is a virulent malarial parasite that kills 1-2 million people worldwide each year. […] Because mature erythrocytes lack DNA, only Plasmodium-derived DNA is detected. The SYBR Green viability assay was adapted from a method described previously (Plouffe et al., 2008). […] The following morning, fluorescence intensity at 485(14) nm excitation and 535(25) nm emission wavelengths was measured on an EnVision (Perkin Elmer) plate reader. […]
Form field: parasite growth, % of DMSO control (one value per entry).
State just the number; it will be interpreted in %.

O=C(O)c1cccc(-c2noc(-c3ccccc3F)n2)c1 :: 93.9

Prompt: Note parasite growth, % of DMSO control for the compound shown: `Oc1ccc(OCc2ccccc2)cc1`
Response: 89.5

Prompt: Note parasite growth, % of DMSO control for the compound shown: `CC(C)[C@H](N)C(=O)OCCOCn1cnc2c(=O)[nH]c(N)nc21`
Response: 102

Prompt: Note parasite growth, % of DMSO control for the compound shown: `C[C@]12CCC(=O)C=C1CC[C@@H]1[C@H]2[C@@H](O)C[C@@]2(C)[C@H]1CC[C@]2(O)C(=O)CO`
Response: 76.9

Prompt: Note parasite growth, % of DMSO control for the compound shown: `C=C(c1ccc(C(=O)O)cc1)c1cc2c(cc1C)C(C)(C)CCC2(C)C`
Response: 70

Prompt: Note parasite growth, % of DMSO control for the compound shown: `CC1(C)C(=O)N(CCN2CCC(C(=O)c3ccc(F)cc3)CC2)c2ccccc21`
Response: 49
